Where these numbers come from: PubChem BioAssay AID1645848

- assay_conditions: buffer; pH 7.4; 6.0 h; 150.0 µM
Hi there, I'd appreciate the recorded log10 solubility kinetic for every entry that follows.
The base-10 logarithm of solubility kinetic, taken with solubility kinetic in µg/mL, is what appears here.

Problem: What value of log10 solubility kinetic has been reported for the following molecule? Cc1ccc(S(=O)(=O)Nc2cnccc2C(=O)Nc2nc(-c3cc4ccccc4o3)cs2)cc1
Solution: -0.28

Problem: What value of log10 solubility kinetic has been reported for the following molecule? Cc1cnccc1-c1nc(Nc2ccc(F)c(F)c2)c2ccccc2n1
Solution: 0.16

Problem: What value of log10 solubility kinetic has been reported for the following molecule? CN(C)c1cccc(-c2ccnc(N3CCC(C(N)=O)CC3)n2)c1
Solution: 1.59

Problem: What value of log10 solubility kinetic has been reported for the following molecule? CC(=O)c1cccc(-c2csc3ncnc(Sc4nnnn4C)c23)c1
Solution: 1.15

Problem: What value of log10 solubility kinetic has been reported for the following molecule? Cc1sc2c(c1C)C(c1ccc(Cl)cc1)=N[C@H](CC(=O)NCCCCNC(=O)COc1cccc3c1C(=O)N([C@H]1CCC(=O)NC1=O)C3=O)c1nnc(C)n1-2
Solution: 1.80

Problem: What value of log10 solubility kinetic has been reported for the following molecule? COc1ccnc(NC(=S)N2CCN(c3ncc(C(F)(F)F)cc3Cl)CC2)c1
Solution: 0.09

Problem: What value of log10 solubility kinetic has been reported for the following molecule? CC(=O)c1c(C)[nH]c(C(=O)Nc2ccc(C)c(S(=O)(=O)N3CCCCCC3)c2)c1C
Solution: 0.02

Problem: What value of log10 solubility kinetic has been reported for the following molecule? COc1ccc(CNC(=O)c2cnc3ccccc3n2)cc1
Solution: 1.56

Problem: What value of log10 solubility kinetic has been reported for the following molecule? Cc1cccc(-n2cnc3cc(C(=O)N4CCCC(C(F)(F)F)C4)ccc32)c1 (stereo not given)
Solution: 1.66

Problem: What value of log10 solubility kinetic has been reported for the following molecule? COc1cc(C(=S)N2CCN(CCO)CC2)ccc1OCc1ccc(C)cc1
Solution: 1.56

Problem: What value of log10 solubility kinetic has been reported for the following molecule? Cc1ccc(-n2nc3c(=O)n(CCCC(=O)NCc4ccccc4F)nc(C)c3c2C)cc1
Solution: 0.62

Problem: What value of log10 solubility kinetic has been reported for the following molecule? CNC1CCC(N(Cc2ccc(OC)c(-c3ccc(C#N)cc3)c2)C(=O)c2sc3ccccc3c2Cl)CC1 (stereo not given)
Solution: 1.22

Problem: What value of log10 solubility kinetic has been reported for the following molecule? Cc1cc(-c2nnc3n2CCCCC3)c(C)n1-c1cccc2ccccc12
Solution: 1.19

Problem: What value of log10 solubility kinetic has been reported for the following molecule? COc1ccc(NC(=O)c2[nH]c(C)c(C(C)=O)c2C)cc1S(=O)(=O)N(C)C
Solution: 0.57

Problem: What value of log10 solubility kinetic has been reported for the following molecule? c1cc(-c2cc(-c3ccncc3)c3cncn3c2)c2[nH]ncc2c1
Solution: 0.39
